Source: the supplement of paper PMC9170038

System: MS2 coat protein
test_method_notes: apparent KD of MS2 coat protein; designed switch direction (-1 OFF switch, 1 ON switch): 1; higher = weaker reporter binding
experimental_parameters: input ligand: FMN 200 uM
assay_metric: apparent KD of MS2 coat protein (µM)
Answer with a number only, understood to be in µM.

1. UAUAUUAUGGUAGGAUAUCUAGGAUAUGGGAAGAGCUAAGCUUGGAAGUCACUUCACCCAGAAGGAGAGAAGGACCAUAAUAUU [pwkr ssNG2 2FMN + F9.5] (Eterna round: R96, puzzle: Same State NG 2); 0.105

Tell me the measured apparent KD of MS2 coat protein of GGUGCAAUUAACGCCUACAUGAGGAUCACCCAUGUAUGUAGGCAGGAUAUCGUUUGCAAAGCAAACGAGAAGGGCUGUAGUACC [Mat - Same State NG 3 - JL Mod - D40] (Eterna round: R96, puzzle: Same State NG 3) , please.
0.0511

What about this sequence? GGUAGGUUACUACCAAACAUGAGGAUCACCCAUGUUGAUGGGAAGGAUAUGGUACCUUUUAGGUACCAGAAGGUCUACUCGAUC [NGss mod of JL's mod of Fisker 3] (Eterna round: R96, puzzle: Same State NG 3)
0.111

What about this sequence? GUAGCAUACCGAGGAUAUUCAUAUACAUGAGGAUCACCCAUGUUAAAUAAUAGGCGAAAGCCUUGGGAGAAGGCGGAAUGCUAC [Xeonanis - 20 Mod70] (Eterna round: R96, puzzle: Same State NG 2)
0.0103

What about this sequence? CUGACGUGAUCAGGAUAUUGUAAGACAAUGUUGCAAGAAGGGAUUAAUGAGCCCGAACAGACAUGAGGAUCACCCAUGUGUCAG [Eternabot solution 41] (Eterna round: R96, puzzle: Same State NG 1)
0.0695

What about this sequence? UUGAAGAAUUAAGGAUAUCGAGUCAAGAUGUAAAACAUGAGGAUCACCCAUGUGGGUUGCGGUAUCGAGAAGGUAAAUUACAAG [Mat - Same State NG 2 - JL mod - D52] (Eterna round: R96, puzzle: Same State NG 2)
0.0241

What about this sequence? GCUAGAAUAAAUGCCUACAUGAGGAUCACCCAUGUAUGUAGGCAGGAUAUCGUUUGCAAAGCAAACGAGAAGGGCCUUACUAGC [Mat - Same State NG 3 - JL Mod - D29] (Eterna round: R96, puzzle: Same State NG 3)
0.0215

What about this sequence? CUGAGCGAUCAAGGAUAUCACGUCGAUUAGACGUGAGAAGGUGAUAAUUACAUGAGGAUCACCCAUGUAUAACAUGAAGCUCAG [SSNG1/9-A2] (Eterna round: R96, puzzle: Same State NG 1)
0.016

---

# key: entry, value: apparent KD of K4 kissing-loop reporter
System: K4 kissing-loop RNA reporter;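 further: bound reporter read as fluorescence of individual clusters on recovered sequencing chips by microscopy, with normalized cluster intensities fitted with a binding model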
test_method_notes: apparent KD of K4 kissing-loop reporter; higher = weaker reporter binding
experimental_parameters: Eterna round: R107; input ligand: tryptophan 2.4 mM
Answer with a number only, understood to be in nM.

Guide cases for apparent KD of K4 kissing-loop reporter, answers given:
1) UGAUUGCCAGUGAUGUUGGCAGGGUCUGAAGGAGCGCGUGAAAACGCAGGUAGGUCGCAGUAUGGUGCCAAUUGAUCGAAAGAUC [KL-XArg-A3]; 170
2) ACGCGCGCGAGUGAUGUUCGGAGCGGCUGGCAGGAUAUGUAGCAAUGCAGAAGGGUCGUGGCUGCUGGUAGGAAACUACUGGCAG [#2 Exclusion - FMN A Attempt #4 (HarryS)]; 441
3) GUAGAUAGGCUACAUCUCUAGUCUAUAGACUAGGAUAUCAGGAAACUGAGAAGGAGUCUCAUUGGAGUGAUGUUCCAAGAAUAAU [KL-SSFMN-A15]; 85.1
4) UUACUACCCAGUGAUGUUGGGUAGCGGCCACGAGGACCGGUACGGCCGCCACUCGAGGUUCGGGAGUGAUGUUCCUACUAUUUGG [Same state Tryptophan A GF 6]; 160
5) UGCAUCAGUGCCUUUGAUCUAUUCCUGGAUACCAGAUCCUACUUGAUCCCUUGGCAGCCAUACGGGAGUGAUGUUCCAUGUAUCC [theeternabot_exclusion_KL_Theo_A_43]; 167

Tell me the measured apparent KD of K4 kissing-loop reporter of UGUAUGUGAUUUGAUACCAGACCAGCUGGUGGUAUCUGAGUGAUGUUCAGGUAGGUUUGGGUCCCUUGGCAGCAAAUCGCAUACU [KL-SSTheoB26] , please.
147

---

Tested on: MS2 coat protein
test_method_notes: apparent KD of MS2 coat protein; designed switch direction (-1 OFF switch, 1 ON switch): 1; higher = weaker reporter binding
experimental_parameters: Eterna round: R95; input ligand: none
# key: entry, value: apparent KD of MS2 coat protein
Answer with a number only, understood to be in nM.

1) GGUCCGGCCUGAGCUGGACCGAAGCAUGUACAUGAGGAUCACCCAUGUCAUGUACAGGCUUCUUGCUCGUCUUGUUG [JL-shm-2.15 JL Mod] (puzzle: Sensor for hsa-mir-208a); 219
2) AAUAAUCUAUCUGAGGAUAUCAUGAAAUAAACAUGAGGAUCACCCAUGUGCAGGAAAACUGCAUAUGAGAAGGCAGAUAGAUUGA [salish99_ss2_r3_020] (puzzle: Same State 2); 1160
3) GUGGUGUAGAUACAGGAUAUGUUGCUCGUAACAUGAGGAUCACCCAUGUAUGUAUGAGAAUGAAUGCAGAAGGGUGCACACCACG [Mat - Same State 2 - Mod of UCT - D77] (puzzle: Same State 2); 159

Let us examine a further case.
Tell me the measured apparent KD of MS2 coat protein of AGUCCAGCCAGAGCUGGACAAAAGCAUGUACAUGAGGAUCACCCAUGUUCAUGUACAAGCUUUUUGCUCGUCAAAAG [Mat - hsa-mir-208a - Mod of JL - 69] (puzzle: Sensor for hsa-mir-208a) , please.
233

---

Test system: MS2 coat protein
test_method_notes: apparent KD of MS2 coat protein; higher = weaker reporter binding
experimental_parameters: Eterna round: R107; input ligand: theophylline 20 uM
# key: entry, value: apparent KD of MS2 coat protein
# include the unit after the value

Guide cases for apparent KD of MS2 coat protein, answers given:
1) ACAUGAGGAUCACCCAUGUAAGGUCUUGAUACCAGACGAGAAGUAGUCCCUUGGCAGCAAAUACGUGAGGGUCACACAUGUGUAA [edsmullin]; 37.7 nM
2) ACAUGAGGAUCACCCAUGUUCCUCUUUGAUACCAGUGAGUUGUUUCGCCCUUGGCAGCGAGUGUUUGUUUUUUUGUUUUGUUUGG [6.S]; 314 nM
3) ACACGAAGCUGAAGGAGCGUGGUACAAGUUUUUACAUGAGGAUCACCCAUGUUUCGUCAAUCACAGGUAGGUCGCAGAUGCGUGA [#08 Same State - Arginine B]; 42.5 nM
4) UUGUUGUUUGGAAGGAGCGUGGAUGAGUUAGAACAUGAGGAUCACCCAUGUUGGAUGAUACCACAGGUAGGUCGCCGGGUGGUGG [11.Z]; 48.8 nM

Tell me the measured apparent KD of MS2 coat protein of UUUAAUUUAAUAGAUACCAGCUAAUAAUAAUCCCGGAGGACAUGAGGAUCACCCAUGUGGAGCCCUUGGCAGCUAAAAUAAAUUU [Exclusion - Theophylline B] , please.
63.7 nM

What about this sequence? AAUAUUAUGUCGGCCGCCACUUCCCACAAGAGGUGCCUGCACCCACAUGAGGAUCACCCAUGUCGAAGGACCGGGACGCUCAAUU [theeternabot_sameState_MS2_Trp_B_35]
23.6 nM

---

Test system: MS2 coat protein
test_method_notes: apparent KD of MS2 coat protein, switch ON state; designed switch direction (-1 OFF switch, 1 ON switch): -1; higher = weaker reporter binding
experimental_parameters: FMN input: 0 or 200 uM; Eterna round: R93 (includes R88 designs)
assay_metric: apparent KD of MS2 coat protein (nM)
Answer with a number only, understood to be in nM.

Guide cases for apparent KD of MS2 coat protein, answers given:
1. AUAGGCCUAGGAUAUACAUGAGGAUCACCCAUGUUAACACUUCAAUCAAGUUAAUAGUGUAGAAGGAGGAAUAA [JR_Exc003_Sub308]; 29.3
2. GGGAAACAUGAGGAUCACCCAUGUGAGGAUAUGCUAUGGAAAAUAAAAAUAAAACAUAGCAGAAGGCAUAAAAA [Denovo 11]; 30.6
3. GGUUGGCGAGGAUAUACAUGAGGAUCACCCAUGUGAGAGAAGAAAGUGAGGAGGAGAAGUAGAAGGCGCUGACG [salish99-ex3-20]; 51.4
4. AAGGGACAUGAGGAUCACCCAUGUUAGGAUAUGCAAAUAACAAACAACAAACAACAAAGCAGAAGGGACAAAAA [Mat - Exclusion 1 - Eli mod - D54]; 37.5
5. GAAACUAGAGGAUAUACGUACAUGUCAAAAGACGUGAAGGGACAUGAGGAUCACCCAUGUAGAAGGCUAGAAAG [Mat - Exclusion 2 - JL mod - D98]; 47.8
6. GGUUGGCGAGGAUAUACAUGAGGAUCACCCAUGUGAGAGAAAAAAGUGAGAAAGAAACGUAGAAGGCGCUGACG [salish99-ex3-30]; 88.4
7. CUCAAGUAAGGAUAUACAAGAAAAGAAGAGAAAGAAAAGAAGUAGAAGGUACAUGAGGAUCACCCAUGUAAGAA [EteRNA is fun!]; 26.7
8. AAAACUCGAGGAUAUACGAACAUGUCAAAAGACGUGAAGGGACAUGAGGAUCACCCAUGUAGAAGGCGAGAAAA [Mat - Exclusion 2 - JL-Eli mod - D45]; 55.4

Find apparent KD of MS2 coat protein (MS2 coat protein) for the entry AAAAAGGUAGGAUAUACAUGAGGAUCACCCAUGUAAAAAAAAACAGAAAAAAACAAAUGUAGAAGGGCCAAAAA [Ex3 Malc#5]
25.9

What about this sequence? AACAGGUCAGGAUAUGUGGAAAAAAUAAAAAAAAUAAAAACACAGAAGGGACAUGAGGAUCACCCAUGUAAAAA [May 20]
59.5

What about this sequence? AGAAACCUAGGAUAUACAUGAGGAUCACCCAUGUAAAGAAAGAAGGGAGCCACAAGAAGUAGAAGGAGGAAGAA [JR_Exc003_Sub005]
16.9

What about this sequence? GAAAAACAUGAGGAUCACCCAUGUGAGGAUAUACGAAAGUAGAAGGCACUAAAAGAAAAGAGAAGGAGAAAAGA [Meechl Ex1 R2 m2]
19.9

What about this sequence? CUCAAGUGAGGAUAUCAGUAGUAAAAAAAUAAAAUUACUACUGAGAAGGCACAUGAGGAUCACCCAUGUGCCAA [EX4 335: Super Stable 35]
14.7
